- procedure-summary: NCI Yeast Anticancer Drug Screen. Data for the cln2 rad14 strain (AID 165);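 also: 0% = growth equal to vehicle treated cultures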
- details: S. cerevisiae cln2 rad14 strain, at 50.0 µM, hits give high values
The panel holds about 79,000 compounds, 15% with a hit somewhere; the sample as a whole holds those more often.
Give measured growth inhibition for each item. Keep answers brief.
Return type: number; implicit unit %.

For the compound CCOc1ncc(C(O)c2ccc(C)cc2)c(OCC)n1 (stereo unspecified) , what growth inhibition is on record?
-52.6

Same question for `CCCCCCCCO[Si](OCCCCCCCC)(OCCCCCCCC)OCCCCCCCC` please.
6.9

Same question for `O=C(Nc1ccc(Cl)cc1)Nc1nnc(-c2ccc(F)cc2)o1` please.
-70.3

Same question for `Cc1ncc([N+](=O)[O-])n1CCN(C)CCCCn1ccnc1[N+](=O)[O-]` please.
-3.75

Same question for `C[n+]1ccc2ccccc2c1C#N` please.
-0.35

Same question for CC(CCl)CC#N (stereo unspecified) please.
13.1

----------
- procedure-summary: NCI Yeast Anticancer Drug Screen. Data for the rad50 strain (AID 155);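 also: 0% = growth of vehicle-only cultures of the same strain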
- details: S. cerevisiae rad50 strain growth inhibition; at 50.0 µM; hits give high values
Compounds without any hit were thinned out: in the full panel of roughly 79,000, 15% have a hit.
assay-readout: growth inhibition (%)
Return type: number; implicit unit %.

For the compound Cc1ccc(NC(=O)C2C3CC4OC(=O)C2C4C3)cc1 (configuration not stated) , what growth inhibition is on record?
-10.6

Same question for `O=C1NC(Nc2ccccc2)=NC(C(F)(F)F)(C(F)(F)F)N1` please.
-1.5

Same question for CCOC(=O)C1(C(F)(F)F)N=C(CC)OC(N2CCOCC2)=N1 (configuration not stated) please.
-23.9

Same question for CC(C)CC(NC(=O)C(CS)NC(=O)CN1C(=O)CCC1=O)C(N)=O (configuration not stated) please.
15.1

Same question for COC1OC(COS(C)(=O)=O)C(OS(C)(=O)=O)C(OC(=O)c2ccccc2)C1OS(C)(=O)=O (configuration not stated) please.
-6.25

Same question for `Cc1ccc(NCC#N)cc1` please.
27.1

Same question for `O=C1C=C(O)C(=C/C=C/C=C/c2c(O)cc(O)cc2O)C(O)=C1` please.
-12.4

Same question for `O=C(O)C12CCCC(CCC1)C2` please.
-2.2

Same question for `CC(=O)NNc1nc(C)c(C(=O)NNC(=O)C(=O)Nc2ccc(C)c(C)c2)s1` please.
8.7

Same question for `Cn1c(-c2ccc(Br)cc2)cc2[nH]c(=S)nc(N)c2c1=O` please.
-16.8

Same question for C1CCC(C2CCC(C3CCCCC3)CC2)CC1 (configuration not stated) please.
-14.1

Same question for Clc1cc2nn(C3CCCCO3)nc2cc1Cl (configuration not stated) please.
0.65

----------
- procedure-summary: NCI Yeast Anticancer Drug Screen. Data for the sgs1 mgt1 strain (AID 161);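 also: 0% = growth of cultures given vehicle only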
- details: S. cerevisiae sgs1 mgt1 strain, at 50.0 µM, hits give high values
- Method: Growth inhibition of yeast strains with defined genetic alterations is measured as a screen for potential anti-cancer activity. Selected strains with alterations in DNA damage repair or cell cycle control were exposed to compounds and growth inhibition was measured relative to vehicle treated controls. The strain used in this assay is sgs1 mgt1
The panel holds about 79,000 compounds, 15% with a hit somewhere; the sample as a whole holds those more often.
Give measured growth inhibition for each item. Keep answers brief.
Return type: number; implicit unit %.

For the compound `CC(=O)c1ccc[cH-]1.[Fe+2].c1cc[cH-]c1` , what growth inhibition is on record?
12.9

Same question for `O=C(O)c1cc(-c2ccccc2Cl)nc2cc3ccccc3cc12` please.
4.45

Same question for CCCC1CC(=O)NC1C(=O)O (centres undefined) please.
-6.85

Same question for `CCOC(=O)/C(O)=C/c1cc(=O)n(C)c2ccccc12` please.
-5.8

Same question for `O=c1c2ccccc2nc(-c2ccccc2)n1NC(=S)Nc1cccc(Cl)c1` please.
3.65

Same question for COc1ccc(C2C3=CONC3CC3CCCCC32)cc1 (centres undefined) please.
-0.4

Same question for `CN(C)CC(CN(C)C)C(=O)c1ccccc1` please.
16.3

Same question for CCCCCCCCCCCCCCCCCCCC/C=C/C1CC(=O)OC1=O (centres undefined) please.
16.9

Same question for `C1CCC(C(CCCCC(C2CCCCC2)C2CCCCC2)C2CCCCC2)CC1` please.
27.2

Same question for `COc1ccc(Cl)cc1[N+](=O)[O-]` please.
-3.85

Same question for `S=c1[nH]c2ccccc2n1CCc1ccncc1` please.
22.2

Same question for O=C(OC1COC(OC(=O)c2ccc([N+](=O)[O-])cc2)C(OC(=O)c2ccc([N+](=O)[O-])cc2)C1OC(=O)c1ccc([N+](=O)[O-])cc1)c1ccc([N+](=O)[O-])cc1 (centres undefined) please.
-9.9

Same question for `CC(C)NNC(N)=O` please.
-0.8

Same question for `CC(C)OC(=S)SCC(=O)c1ccc(-c2ccccc2)cc1` please.
21.3

Same question for `CC(=O)NNc1nc(C)c(C(=O)NNC(=O)C(=O)Nc2ccc(C)c(C)c2)s1` please.
-6.05

Same question for `O=C1CSC(=S)N1c1cccc(F)c1` please.
2.1

Same question for `N[C@H](CCC(=O)NCP(=O)(O)O)C(=O)O` please.
-44.7

Same question for `Cc1cn(C)c2c1-c1oncc1CC2` please.
5.4

Same question for `COc1cc(C)ccc1C(=O)C[n+]1ccc2ccccc2c1` please.
-25.9

Same question for Cc1ccc(S(=O)(=O)NC(CC(C)C)C(=O)O)cc1 (centres undefined) please.
-4.55

Same question for `O=C1c2c(/C=C/c3ccc(Cl)c(Cl)c3)nc3ccccc3c2C(=O)N1CCN1CCCCC1` please.
83.2

Same question for Cc1cc(C(=O)C(C(c2ccccc2)N2CCOCC2)N2CCOCC2)ccc1Cl (centres undefined) please.
12.8

Same question for OCC(O)c1ccc(Cl)cc1 (centres undefined) please.
-14.8

Same question for `O=C(c1ccc(Cl)cc1)N(C(=S)N1CCN(c2ccccc2)CC1)C1CCCCC1` please.
-19.5
